Would you kindly list Activity (RFU/sec/µg), dansyl-cadaverine fluorescence kinetics for each of these proteins?
target: hGHQ141N, P01241
Sequence (P01241 27-217 Q167N): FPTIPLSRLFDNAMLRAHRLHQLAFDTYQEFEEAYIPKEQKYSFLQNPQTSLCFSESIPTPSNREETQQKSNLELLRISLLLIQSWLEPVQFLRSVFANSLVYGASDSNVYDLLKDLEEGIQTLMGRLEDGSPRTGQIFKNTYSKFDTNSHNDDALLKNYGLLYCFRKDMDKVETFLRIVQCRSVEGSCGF
Use RFU/sec/µg as the unit, but write only the number.

Exam item: Quick one: Activity (RFU/sec/µg), dansyl-cadaverine fluorescence kinetics for Met-mTGase from S. ladakanum (protein) MDSDERVTPPAEPLDRMPDPYRPSYGRAETIVNNYIRKWQQVYSHRDGRKQQMTEEQREWLSYGCVGVTWVNSGQYPTNRLAFAFFDEDKYKNELKNGRPRSGETRAEFEGRVAKDSFDEAKGFQRARDVASVMNKALENAHDEGAYLDNLKKELANGNDALRNEDARSPFYSALRNTPSFKDRNGGNHDPSKMKAVIYSKHFWSGQDRSGSSDKRKYGDPEAFRPDRGTGLVDMSRDRNIPRSPTSPGESFVNFDYGWFGAQTEADADKTVWTHGNHYHAPNGSLGAMHVYESKFRNWSDGYSDFDRGAYVVTFVPKSWNTAPDKVKQGWP ?
Marked response: 0.8

Exam item: Quick one: Activity (RFU/sec/µg), dansyl-cadaverine fluorescence kinetics for Mature mTGase from Streptoverticillium ladakanum (protein) DSDERVTPPAEPLDRMPDPYRPSYGRAETIVNNYIRKWQQVYSHRDGRKQQMTEEQREWLSYGCVGVTWVNSGQYPTNRLAFAFFDEDKYKNELKNGRPRSGETRAEFEGRVAKDSFDEAKGFQRARDVASVMNKALENAHDEGAYLDNLKKELANGNDALRNEDARSPFYSALRNTPSFKDRNGGNHDPSKMKAVIYSKHFWSGQDRSGSSDKRKYGDPEAFRPDRGTGLVDMSRDRNIPRSPTSPGESFVNFDYGWFGAQTEADADKTVWTHGNHYHAPNGSLGAMHVYESKFRNWSDGYSDFDRGAYVVTFVPKSWNTAPDKVKQGWP ?
Marked response: 0.63
